# Tested on: Hepatocyte
# Assay Overview: Metabolic stability in human hepatocytes in presence of NADPH relative to dextromethorphan
# Type: ADME, cell-based
Measurement Kind: Ratio
Write no unit; give the number alone.

Example results:
CCCSc1nc(N[C@@H]2C[C@H]2c2ccccc2)c2nnn([C@@H]3C[C@H](OCCO)[C@@H](O)[C@H]3O)c2n1 = 13
OCCO[C@H]1C[C@@H](n2nnc3c(N[C@@H]4C[C@H]4c4ccc(F)c(F)c4)nc(SCCC(F)(F)F)nc32)[C@H](O)[C@@H]1O = 32
CCCSc1nc(N[C@@H]2C[C@H]2c2ccccc2)c2nnn([C@@H]3C[C@H](CO)[C@@H](O)[C@H]3O)c2n1.Cl = 27

Now consider a different compound.
Ratio in this record for CCCSc1nc(N[C@@H]2C[C@H]2c2ccc(F)c(F)c2)c2nnn([C@@H]3C[C@H](OCCO)[C@@H](O)[C@H]3O)c2n1 [TICAGRELOR] : 24

###

Listed below: Ratio values for each entry.
# Tested on: Hepatocyte
# Assay Overview: Metabolic stability in human hepatocytes in presence of UDPGA relative to zileuton
# Assay type: ADME, cell-based
Give your answer as a number; write no unit.

OC[C@H]1C[C@@H](n2nnc3c(N[C@@H]4C[C@H]4c4ccccc4)nc(SCCC(F)(F)F)nc32)[C@H](O)[C@@H]1O = 19

Ratio for CCCSc1nc(N[C@@H]2C[C@H]2c2ccccc2)c2nnn([C@@H]3C[C@H](CO)[C@@H](O)[C@H]3O)c2n1 is 5

Per the record, CCCSc1nc(N[C@@H]2C[C@H]2c2ccccc2)c2nnn([C@@H]3CC[C@@H](O)[C@H]3O)c2n1 has Ratio of 1

Kindly note the recorded Ratio for CCCSc1nc(N[C@@H]2C[C@H]2c2ccccc2)c2nnn([C@@H]3C[C@H](O)[C@@H](O)[C@H]3O)c2n1 , which is 3

Reported Ratio for CCCSc1nc(N[C@@H]2C[C@H]2c2ccccc2)c2nnn([C@@H]3C[C@H](CO)[C@@H](O)[C@H]3O)c2n1.Cl was 19

Ratio recorded for this molecule, CCCSc1nc(N[C@@H]2C[C@H]2c2ccccc2)c2nnn([C@@H]3C[C@H](OCCO)[C@@H](O)[C@H]3O)c2n1 , is 24

###

# Assay Overview: Half life in rat at 3 mg/kg, iv
# Assay type: ADME, organism-based
# Parameters: dose 3 mg/kg, route intravenous
# Measurement Parameters: in vivo
Measurement Kind: half-life (h)
Reply with just the number (in h).

CCCSc1nc(N[C@@H]2C[C@H]2c2ccccc2)c2nnn([C@@H]3C[C@H](C(N)=O)[C@@H](O)[C@H]3O)c2n1 = 2
CCCCNc1nc(SCCC)nc2c1nnn2[C@@H]1C[C@H](C(=O)O)[C@@H](O)[C@H]1O = 0.5
CCCSc1nc(N[C@@H]2C[C@H]2c2ccccc2)c2nnn([C@@H]3C[C@H](C(=O)O)[C@@H](O)[C@H]3O)c2n1 = 0.5
CCCCNc1nc(SCCC)nc2c1nnn2[C@@H]1C[C@H](C(N)=O)[C@@H](O)[C@H]1O = 1.4

Entry CCCSc1nc(N[C@@H]2C[C@H]2c2ccccc2)c2nnn([C@@H]3C[C@H](CO)[C@@H](O)[C@H]3O)c2n1 — recorded half-life = 2.5

What the record says about CCCSc1nc(N[C@@H]2C[C@H]2c2ccc(F)c(F)c2)c2nnn([C@@H]3C[C@H](OCCO)[C@@H](O)[C@H]3O)c2n1 : half-life is 2.6
